# test: self-splicing fitness, log relative to wild type (ln ratio); higher = more splicing; Tetrahymena group I intron in knt gene, E. coli kanamycin selection, DiMSum; sequences stand for … in CUCUCU…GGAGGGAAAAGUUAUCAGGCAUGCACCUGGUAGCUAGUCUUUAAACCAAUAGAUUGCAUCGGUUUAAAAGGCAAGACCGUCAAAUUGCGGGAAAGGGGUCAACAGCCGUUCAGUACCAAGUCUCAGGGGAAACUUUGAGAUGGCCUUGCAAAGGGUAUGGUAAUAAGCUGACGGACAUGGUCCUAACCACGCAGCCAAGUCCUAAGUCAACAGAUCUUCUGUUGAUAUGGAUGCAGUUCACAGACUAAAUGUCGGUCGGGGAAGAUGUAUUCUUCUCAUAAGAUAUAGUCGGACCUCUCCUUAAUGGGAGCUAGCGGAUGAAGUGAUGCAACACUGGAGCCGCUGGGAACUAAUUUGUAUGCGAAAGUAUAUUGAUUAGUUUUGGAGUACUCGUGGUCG;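 also: selection with 25 µg/mL kanamycin versus none on LB agar overnight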
# assay_context: 37 °C
Below: a set of entries, each annotated with reported self-splicing fitness (ln).
Response field accepts a number only; no unit should be typed.

Known self-splicing fitness (ln) results, listed for orientation:
- sequence_chain: "UCCUAGCAAUAUUACGCAGU"
  self-splicing fitness (ln): -2.54
- sequence_chain: "UCGUAGCAAUAUUACGAUGA"
  self-splicing fitness (ln): -0.601
- sequence_chain: "UGUGAGCAAUAUUACGACCG"
  self-splicing fitness (ln): -0.38
- sequence_chain: "AUCUAGCAAUAUUACGGGUC"
  self-splicing fitness (ln): -2.49

// query self-splicing fitness (ln) value for entry "CUCUAGCAAUAUUACGAUGU"
-2.92

* * *

# test: self-splicing fitness, log relative to wild type (ln ratio); higher = more splicing; Tetrahymena group I intron in knt gene, E. coli kanamycin selection, DiMSum; sequences stand for … in CUCUCU…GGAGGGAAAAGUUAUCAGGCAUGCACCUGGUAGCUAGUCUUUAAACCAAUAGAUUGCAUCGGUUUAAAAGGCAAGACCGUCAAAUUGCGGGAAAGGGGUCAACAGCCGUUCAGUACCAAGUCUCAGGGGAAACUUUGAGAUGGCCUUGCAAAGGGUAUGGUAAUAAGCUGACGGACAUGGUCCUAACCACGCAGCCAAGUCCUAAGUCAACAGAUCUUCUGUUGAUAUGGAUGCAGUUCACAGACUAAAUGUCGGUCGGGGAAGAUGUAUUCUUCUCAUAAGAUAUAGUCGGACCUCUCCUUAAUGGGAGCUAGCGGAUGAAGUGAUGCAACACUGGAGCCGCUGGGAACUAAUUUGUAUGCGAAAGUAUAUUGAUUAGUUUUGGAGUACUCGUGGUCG
# assay_context: 30 °C
recorded_metric: self-splicing fitness (ln)
Response field accepts a number only; no unit should be typed.

Known self-splicing fitness (ln) results, listed for orientation:
- sequence_chain: "UCAGAGCAAUAUUACGCAUU"
  self-splicing fitness (ln): -3.35
- sequence_chain: "CGAUAGCAAUAUUACGGUGU"
  self-splicing fitness (ln): -2.7
- sequence_chain: "GUCAAGCAAUAUUACGGUGC"
  self-splicing fitness (ln): -2.35
- sequence_chain: "GGUUAGCAAUAUUACGAUAU"
  self-splicing fitness (ln): -0.423
- sequence_chain: "CGUAAGCAAUAUUACGUAUG"
  self-splicing fitness (ln): -2.17

// query self-splicing fitness (ln) value for entry "AGGUAGCAAUAUUACGGCUA"
-1.66

// query self-splicing fitness (ln) value for entry "UACCAGCAAUAUUACGGUAG"
-2.15

// query self-splicing fitness (ln) value for entry "CUACAGCAAUAUUACGUGAG"
-0.958

// query self-splicing fitness (ln) value for entry "GAAAAGCAAUAUUACGCAUC"
-3.17

// query self-splicing fitness (ln) value for entry "CGCAAGCAAUAUUACGUGAC"
-2.74

// query self-splicing fitness (ln) value for entry "UGGAAGCAAUAUUACGGAGU"
-3.51

// query self-splicing fitness (ln) value for entry "GCAGAGCAAUAUUACGGUGC"
-2.67

// query self-splicing fitness (ln) value for entry "GAUGAGCAAUAUUACGCGCU"
-1.97

// query self-splicing fitness (ln) value for entry "UGCGAGCAAUAUUACGGGGG"
-3.34

// query self-splicing fitness (ln) value for entry "UGACAGCAAUAUUACGAAAC"
-3.96

// query self-splicing fitness (ln) value for entry "AGGGAGCAAUAUUACGGGUU"
-3.84

// query self-splicing fitness (ln) value for entry "CAUUAGCAAUAUUACGCACA"
-1.01

// query self-splicing fitness (ln) value for entry "GGCUAGCAAUAUUACGCGCG"
-0.69

// query self-splicing fitness (ln) value for entry "GCAUAGCAAUAUUACGUGGG"
-3.68

// query self-splicing fitness (ln) value for entry "AAGUAGCAAUAUUACGACGA"
0.0522

// query self-splicing fitness (ln) value for entry "CCCAAGCAAUAUUACGGCAG"
-3.73
